experiment: Apparent total volume of distribution in fed state female healthy human at 400 mg, po administered as single dose; format: ADME, organism-based; details: in vivo, read-out: Vz/F
Measured Quantity: Vd/F (L)
One number for each entry, in L.

Asked: Recorded Vd/F of COP(=O)(c1cc(C)cc(/C=C/C#N)c1)c1c(C(N)=O)[nH]c2ccc(Cl)cc12 (stereo unspecified) , please.
Given back: 329

###

assay: Tmax in fasted state healthy human at 50 mg, po administered as single dose; format: ADME, organism-based; conditions: in vivo
Measured Quantity: Tmax (h)
Answers are plain numbers, in h.

Asked: Recorded Tmax of COP(=O)(c1cc(C)cc(/C=C/C#N)c1)c1c(C(N)=O)[nH]c2ccc(Cl)cc12 (stereo unspecified) , please.
Given back: 1.5

###

assay: Apparent total plasma clearance in healthy human at 800 mg, po qd after 1 day; assay type: ADME, organism-based
Measured Quantity: CL/F (mL/min)
Answers are plain numbers, in mL/min.

Asked: Recorded CL/F of COP(=O)(c1cc(C)cc(/C=C/C#N)c1)c1c(C(N)=O)[nH]c2ccc(Cl)cc12 (stereo unspecified) , please.
Given back: 252

###

assay: Apparent total plasma clearance in fed state healthy human at 1200 mg, po administered as single dose 0; type: ADME, organism-based
Measured Quantity: CL/F (mL/min)
Numbers only, in mL/min.

Asked: Recorded CL/F of COP(=O)(c1cc(C)cc(/C=C/C#N)c1)c1c(C(N)=O)[nH]c2ccc(Cl)cc12 (stereo unspecified) , please.
Given back: 197

###

experiment: Cmax in fed state healthy human at 800 mg, po administered as single dose; format: ADME, organism-based; parameters: dose 800 mg, route oral; settings: in vivo
Measured Quantity: Cmax (ng/mL)
Give bare numbers, in ng/mL.

Asked: Recorded Cmax of COP(=O)(c1cc(C)cc(/C=C/C#N)c1)c1c(C(N)=O)[nH]c2ccc(Cl)cc12 (stereo unspecified) , please.
Given back: 3000

###

assay: Apparent total plasma clearance in fasted state healthy human at 100 mg, po administered as single dose; assay type: ADME, organism-based
Measured Quantity: CL/F (mL/min)
One number for each entry, in mL/min.

Asked: Recorded CL/F of COP(=O)(c1cc(C)cc(/C=C/C#N)c1)c1c(C(N)=O)[nH]c2ccc(Cl)cc12 (stereo unspecified) , please.
Given back: 118

###

assay: AUC (0 to infinity) in fasted state healthy human at 400 mg, po administered as single dose; assay type: ADME, organism-based; parameters: dose 400 mg, time infinity, route oral; conditions: plasma
Measured Quantity: AUC(0-inf) (ng·h/mL)
Give bare numbers, in ng·h/mL.

Asked: Recorded AUC(0-inf) of COP(=O)(c1cc(C)cc(/C=C/C#N)c1)c1c(C(N)=O)[nH]c2ccc(Cl)cc12 (stereo unspecified) , please.
Given back: 14700

###

experiment: Apparent total volume of distribution in fed state healthy human at 200 mg, po administered as single dose; type: ADME, organism-based; settings: in vivo, read-out: Vz/F
Measured Quantity: Vd/F (L)
Give bare numbers, in L.

Asked: Recorded Vd/F of COP(=O)(c1cc(C)cc(/C=C/C#N)c1)c1c(C(N)=O)[nH]c2ccc(Cl)cc12 (stereo unspecified) , please.
Given back: 201

###

experiment: Apparent total plasma clearance in fasted state healthy human at 400 mg, po administered as single dose; assay type: ADME, organism-based
Measured Quantity: CL/F
Number first, unit second: that is the form wanted.

Asked: Recorded CL/F of COP(=O)(c1cc(C)cc(/C=C/C#N)c1)c1c(C(N)=O)[nH]c2ccc(Cl)cc12 (stereo unspecified) , please.
Given back: 480 mL/min

###

experiment: Tmax in fed state healthy human at 800 mg, po administered as single dose; format: ADME, organism-based; conditions: in vivo
Measured Quantity: Tmax (h)
Answers are plain numbers, in h.

Asked: Recorded Tmax of COP(=O)(c1cc(C)cc(/C=C/C#N)c1)c1c(C(N)=O)[nH]c2ccc(Cl)cc12 (stereo unspecified) , please.
Given back: 6

###

assay: Apparent total plasma clearance in fed state healthy human at 200 mg, po administered as single dose; type: ADME, organism-based
Measured Quantity: CL/F (mL/min)
Give bare numbers, in mL/min.

Asked: Recorded CL/F of COP(=O)(c1cc(C)cc(/C=C/C#N)c1)c1c(C(N)=O)[nH]c2ccc(Cl)cc12 (stereo unspecified) , please.
Given back: 230

###

test: Plasma concentration in fasted state healthy human at 50 mg, po administered as single dose after 24 hrs; format: ADME, organism-based
Measured Quantity: concentration at 24 h
Number first, unit second: that is the form wanted.

Asked: Recorded concentration at 24 h of COP(=O)(c1cc(C)cc(/C=C/C#N)c1)c1c(C(N)=O)[nH]c2ccc(Cl)cc12 (stereo unspecified) , please.
Given back: 50 ng/mL

###

assay: Tmax in fasted state healthy human at 100 mg, po administered as single dose; assay type: ADME, organism-based; settings: in vivo
Measured Quantity: Tmax (h)
Numbers only, in h.

Asked: Recorded Tmax of COP(=O)(c1cc(C)cc(/C=C/C#N)c1)c1c(C(N)=O)[nH]c2ccc(Cl)cc12 (stereo unspecified) , please.
Given back: 1.5

###

assay: Apparent total volume of distribution in fed state healthy human at 1200 mg, po administered as single dose; type: ADME, organism-based; conditions: in vivo, read-out: Vz/F
Measured Quantity: Vd/F (L)
One number for each entry, in L.

Asked: Recorded Vd/F of COP(=O)(c1cc(C)cc(/C=C/C#N)c1)c1c(C(N)=O)[nH]c2ccc(Cl)cc12 (stereo unspecified) , please.
Given back: 134

###

experiment: Tmax in fasted state healthy human at 400 mg, po administered as single dose; format: ADME, organism-based; details: in vivo
Measured Quantity: Tmax (h)
Numbers only, in h.

Asked: Recorded Tmax of COP(=O)(c1cc(C)cc(/C=C/C#N)c1)c1c(C(N)=O)[nH]c2ccc(Cl)cc12 (stereo unspecified) , please.
Given back: 1.8

###

assay: Trough plasma concentration in healthy human at 800 mg, po qd after 1 day; assay type: ADME, organism-based; conditions: read-out: Cmin
Measured Quantity: concentration at 24 h (ng/mL)
Answers are plain numbers, in ng/mL.

Asked: Recorded concentration at 24 h of COP(=O)(c1cc(C)cc(/C=C/C#N)c1)c1c(C(N)=O)[nH]c2ccc(Cl)cc12 (stereo unspecified) , please.
Given back: 900
